Reference source for all entries: BigSolDB 2.1

# applied-conditions: in methanol, 308.15 K
readout-name: solubility (mole fraction)

>>> recorded_value("COC(=O)Nc1nc2ccc(S(=O)c3ccccc3)cc2[nH]1 (stereo unspecified)")
0.000242

###

# applied-conditions: in DMF, 303.15 K
readout-name: solubility (mole fraction)

>>> recorded_value("COC(=O)Nc1nc2ccc(S(=O)c3ccccc3)cc2[nH]1 (stereo unspecified)")
0.00502

###

# applied-conditions: in DMSO, 303.15 K
readout-name: solubility (mole fraction)

>>> recorded_value("COC(=O)Nc1nc2ccc(S(=O)c3ccccc3)cc2[nH]1 (stereo unspecified)")
0.012

###

# applied-conditions: in DMF, 278.15 K
readout-name: solubility (mole fraction)

>>> recorded_value("COC(=O)Nc1nc2ccc(S(=O)c3ccccc3)cc2[nH]1 (stereo unspecified)")
0.00284
